Data origin: patent US11230591

Target: recombinant pentameric gH complex (Towne strain) (human cytomegalovirus, Towne strain) (UniProt P17176)
Sequence (P17176 30-715, one chain of several): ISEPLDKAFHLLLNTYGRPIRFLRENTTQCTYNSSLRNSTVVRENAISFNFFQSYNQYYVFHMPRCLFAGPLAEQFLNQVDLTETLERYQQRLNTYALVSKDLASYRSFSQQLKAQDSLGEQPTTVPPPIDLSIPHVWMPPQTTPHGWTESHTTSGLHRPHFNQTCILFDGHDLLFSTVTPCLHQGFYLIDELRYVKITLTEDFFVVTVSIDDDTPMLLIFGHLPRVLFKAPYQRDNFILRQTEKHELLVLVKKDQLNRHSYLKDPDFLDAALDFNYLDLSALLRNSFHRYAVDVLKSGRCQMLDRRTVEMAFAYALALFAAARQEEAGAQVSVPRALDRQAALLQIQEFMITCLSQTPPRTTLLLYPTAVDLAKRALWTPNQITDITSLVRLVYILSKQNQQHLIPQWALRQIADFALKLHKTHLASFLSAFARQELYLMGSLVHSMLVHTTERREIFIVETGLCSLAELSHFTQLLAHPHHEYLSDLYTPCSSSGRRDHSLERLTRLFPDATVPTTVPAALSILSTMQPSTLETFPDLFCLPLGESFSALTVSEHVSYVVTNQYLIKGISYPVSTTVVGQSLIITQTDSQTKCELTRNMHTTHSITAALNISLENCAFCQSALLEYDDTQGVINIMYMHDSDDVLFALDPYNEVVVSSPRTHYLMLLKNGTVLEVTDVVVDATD
Test: BLI competition on His-pentamer; competitor (antibody 2): 1-85
Assignment: determine reported Pair-wise inhibition (%) for the given binders.
# output: bare number, implied unit %

Item: 1-32 (antibody, V domains shown) VH: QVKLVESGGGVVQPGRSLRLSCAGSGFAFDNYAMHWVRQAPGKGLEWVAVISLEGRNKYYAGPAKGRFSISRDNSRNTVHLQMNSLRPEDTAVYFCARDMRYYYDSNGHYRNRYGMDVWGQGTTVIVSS VL: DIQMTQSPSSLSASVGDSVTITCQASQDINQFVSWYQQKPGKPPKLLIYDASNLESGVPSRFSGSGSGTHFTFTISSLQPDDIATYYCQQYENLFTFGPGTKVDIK | Pair-wise inhibition (%): 18

The binder identified as 2-25 (antibody, V domains shown) VH: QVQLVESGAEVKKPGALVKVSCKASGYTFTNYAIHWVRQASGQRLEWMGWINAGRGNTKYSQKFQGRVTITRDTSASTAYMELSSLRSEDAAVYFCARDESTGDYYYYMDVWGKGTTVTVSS VL: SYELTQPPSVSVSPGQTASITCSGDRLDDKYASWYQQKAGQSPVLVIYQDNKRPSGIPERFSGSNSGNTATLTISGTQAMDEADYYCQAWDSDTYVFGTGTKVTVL registered its Pair-wise inhibition (%) at 7

Field Pair-wise inhibition (%) (entry 1-103 (antibody, V domains shown) VH: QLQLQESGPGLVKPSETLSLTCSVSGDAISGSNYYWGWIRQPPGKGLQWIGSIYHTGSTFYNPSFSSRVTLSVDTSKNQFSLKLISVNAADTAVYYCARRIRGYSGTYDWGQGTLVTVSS VL: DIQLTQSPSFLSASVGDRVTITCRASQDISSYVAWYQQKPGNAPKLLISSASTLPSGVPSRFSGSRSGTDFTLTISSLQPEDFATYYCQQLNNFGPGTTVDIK ) reads 6
